molecular target: T1, Cyno CD33 ECD-HSA (cynomolgus monkey); assay: ProteOn SPR, mAb captured by anti-human Fc, 1:1 Langmuir fit
T1 construct: Cyno CD33 extracellular domain fused to monomeric human serum albumin and a six-histidine tag; also called C33W1
pKd: −log10 of the molar value.
Please note: t applies when pKd is 9 or greater, and f applies otherwise.

Worked examples, 2 binders total:
| binder | classLabel |
| --- | --- |
| C33B66 (antibody, IgG1, V domains shown, huIgG1 F405L; also called C33F71; C33H55/C33L42) VH: QVQLQESGPGLVKPSGTLSLTCAVSGGSISSSNWWSWVRQPPGRGLEWIGEIYHSGNTNNSPSLKSRVTISADKSKNQFSLKLSSVTAADTAVYFCARIIAVARYFDSWGQGTLVTVSS VL: SYVLTQPPSVSVAPGQTARITCGGNNIGIKSVHWYQQKPGQAPVLVVYDDSDRPPGIPERFSGSNSGNTATLTITRVEAGDEADYYCQVWDSSSDHVVFGGGTKLTVL | t |
| C33B55 (antibody, IgG1, V domains shown, huIgG1 F405L; also called C33F60; C33H45/C33L11) VH: QVQLVESGGGVVQPGRSLRLSCAASGFTFSSYGMHWVRQSPGKGLEWVAVISYDGSNKYCADSVKGRFTISRDNSKSTLYLQMNSLRAEDTAVYYCAKDFRSLDWLPPDSTSYDGMDVWGQGTTVTVSS VL: SYELTQPPSVSVSPGQTASITCSGHKLGDKYACWYQQKPGQSPVVVIYKDSKRPSGIPERFSGSNFGNTATLTISGTQAMDEADYYCQAWDSSTVVFGGGTKLTVL | t |

Hi, just wondering whether C33B79 (antibody, IgG1, V domains shown, huIgG1 F405L; also called C33F84; C33H74/C33L38) VH: QVQLVESGGGVVQPGRSLRLSCAASRFTFSSYGMHWVRQAPGKGLEWVAVISYDGSNKYYADSVKGRFTISRDNSKNTLYLQMNSLRAEDTAVHYCAKDFRSFDWLPPDSASYHGMDVWGQGTTVTVSS VL: SYELTQPPSVSVPPGQTASITCSGDKLGDKYACWYQQKPGQSPVLVIYQDNKRPSGIPERFSGSNSGNTATLTISGTQAMDEADYYCQAWGRNTVVFGGGTKLTVL shows pKd of 9 or higher.
f

Where do these numbers come from? They come from patent US20230322924A1.
